All figures here come from BindingDB's records for doi:10.1021/acs.jnatprod.5b00540.

# pIC50 per entry
Molecular target: Accessory gene regulator protein A (Staphylococcus aureus, UniProt P0A0I7)
Sequence (P0A0I7 whole entry): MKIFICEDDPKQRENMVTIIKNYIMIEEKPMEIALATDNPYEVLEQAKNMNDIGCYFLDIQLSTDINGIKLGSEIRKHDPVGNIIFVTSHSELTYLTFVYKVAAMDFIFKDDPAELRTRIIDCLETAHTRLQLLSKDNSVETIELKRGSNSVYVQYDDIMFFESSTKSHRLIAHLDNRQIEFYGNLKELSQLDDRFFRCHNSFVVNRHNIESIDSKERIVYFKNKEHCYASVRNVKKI
pIC50: −log10 of the molar value. Numbered stars: 1 amine (or outer) side, 2 acyl side, 3 side chain; on linkers, the order of the positions; unused ones are H or OH. Bridge positions count the residues as written; N and C are the ends. Square brackets hold non-standard residues; d marks the D form. Peptide text beside a SMILES is read from it. * marks the point of attachment. Cinnamoyl(2-(1Z-pentenyl)) = CCC/C=C\c1ccccc1/C=C/C(=O)*; X1 = CN(/C(=C/c1ccc(O)cc1)C(=O)[*:2])[*:1]; aThr = C[C@H](O)[C@H](N)C(=O)O
Endpoint Name: pIC50

C[C@H]1NC(=O)[C@@H](Cc2ccccc2)N(C)C(=O)[C@@H]2CCCN2C(=O)c2ccccc2NC(=O)[C@H](Cc2ccccc2)NC1=O: 5.36
CC[C@H](C)[C@@H]1NC(=O)[C@@H](C)NC(=O)[C@H](C(C)C)NC(=O)C[C@H](/C=C/c2ccccc2)OC(=O)[C@H](C(C)C)NC1=O [CHEBI:67522]: 6.10
CCC/C=C\c1ccccc1/C=C/C(=O)N[C@@H]1C(=O)N(C)/C(=C/c2ccc(O)cc2)C(=O)N[C@@H](CC(C)C)C(=O)N[C@H](Cc2ccccc2)C(=O)N[C@@H]([C@H](C)O)C(=O)N[C@@H](CC(N)=O)C(=O)N[C@@H](CO)C(=O)O[C@@H]1C ({Cinnamoyl(2-(1Z-pentenyl))}-T[X1]L[dF][aThr]NS; ester 1-C): 5.60
CC(C)[C@@H]1NC(=O)C[C@H](/C=C/c2ccccc2)OC(=O)[C@H](C(C)C)NC(=O)[C@H](C(C)C)NC(=O)[C@@H](C)NC1=O: 6.52
